Reported Number of dead aphids average values follow for various compounds
System: aphids
PROTOCOL_NOTES: Biological test on aphid (spray on cabbage leaf in Petri dishes)
Format: in vivo
APPLIED_CONDITIONS: average of four Petri dishes, 20 aphids each; 9.6% w/w reagent diluted 1000 times; after 24 hours
Source text: 9.6 g of the compound (based on the active ingredient) obtained from Example 1 was blended with 90.4 g of a solvent to form a 9.6% w/w pesticide reagent An 8 cm×8 cm piece of cabbage leaf was placed on a lump of wetted cotton in each one of four Petri dishes. 20 aphids were subsequently put on the cabbage leaf in each one of the Petri dishes. […]

[
  {
    "COMPOUND": "Cc1ccc(S(=O)(=O)N=C2OCCN2Cc2ccc(Cl)nc2)cc1 [Example 20]",
    "TGT": "aphids",
    "Number of dead aphids average": 16.5
  },
  {
    "COMPOUND": "Cc1ccc(S(=O)(=O)N=C2SCCN2Cc2ccc(Cl)nc2)cc1 [Example 19]",
    "TGT": "aphids",
    "Number of dead aphids average": 17
  },
  {
    "COMPOUND": "O=S(=O)(N=C1SCCN1Cc1ccc(Cl)nc1)c1ccc(Cl)cc1 [Example 23]",
    "TGT": "aphids",
    "Number of dead aphids average": 17.5
  },
  {
    "COMPOUND": "Cc1ccc(S(=O)(=O)N=C2NCCN2Cc2ccc(Cl)nc2)cc1 [Example 13]",
    "TGT": "aphids",
    "Number of dead aphids average": 16.5
  },
  {
    "COMPOUND": "Cc1ccc(S(=O)(=O)N=C2NCCCN2Cc2ccc(Cl)nc2)cc1 [Example 14]",
    "TGT": "aphids",
    "Number of dead aphids average": 16.5
  }
]

----------
System: aphids
PROTOCOL_NOTES: Biological test on aphid (spray on cabbage leaf in Petri dishes)
Type: in vivo
APPLIED_CONDITIONS: 3rd Petri dish; 20 aphids on cabbage leaf; 9.6% w/w pesticide reagent diluted 1000 times with water, sprayed; examined after 24 hours
Source text: 9.6 g of the compound (based on the active ingredient) obtained from Example 1 was blended with 90.4 g of a solvent to form a 9.6% w/w pesticide reagent An 8 cm×8 cm piece of cabbage leaf was placed on a lump of wetted cotton in each one of four Petri dishes. 20 aphids were subsequently put on the cabbage leaf in each one of the Petri dishes. […]

[
  {
    "COMPOUND": "CS(=O)(=O)N=C1NCCCN1Cc1ccc(Cl)nc1 [Example 16]",
    "Number of dead aphids 3rd": 19
  },
  {
    "COMPOUND": "CS(=O)(=O)/N=C1\\OCCN1Cc1ccc(Cl)nc1 [Example 22]",
    "Number of dead aphids 3rd": 19
  },
  {
    "COMPOUND": "O=S(=O)(N=C1NCCN1Cc1ccc(Cl)nc1)c1ccc(Cl)cc1 [Example 17]",
    "Number of dead aphids 3rd": 19
  },
  {
    "COMPOUND": "CS(=O)(=O)/N=C1\\SCCN1Cc1ccc(Cl)nc1 [Example 21]",
    "Number of dead aphids 3rd": 19
  },
  {
    "COMPOUND": "O=S(=O)(N=C1SCCN1Cc1ccc(Cl)nc1)c1ccc(Cl)cc1 [Example 23]",
    "Number of dead aphids 3rd": 16
  },
  {
    "COMPOUND": "Cc1ccc(S(=O)(=O)N=C2NCCN2Cc2ccc(Cl)nc2)cc1 [Example 13]",
    "Number of dead aphids 3rd": 16
  },
  {
    "COMPOUND": "CS(=O)(=O)/N=C1\\NCCN1Cc1ccc(Cl)nc1 [Example 15]",
    "Number of dead aphids 3rd": 19
  },
  {
    "COMPOUND": "O=S(=O)(N=C1OCCN1Cc1ccc(Cl)nc1)c1ccc(Cl)cc1 [Example 24]",
    "Number of dead aphids 3rd": 19
  },
  {
    "COMPOUND": "O=S(=O)(N=C1NCCCN1Cc1ccc(Cl)nc1)c1ccc(Cl)cc1 [Example 18]",
    "Number of dead aphids 3rd": 19
  }
]
